A collection of compounds and their measured growth
tested on: EKVX NSCLC; test: NCI-60 one-dose screen, 48 h (100 = growth as untreated, 0 = no growth, -100 = all killed); details: 10 µM
Compounds without any hit were thinned out: in the full panel of roughly 83,000, 20% have a hit. Activity calls are given as the source filed them. Rule for the calls: active = growth percent below 10; inactive = the rest.

Below are worked cases with known answers.
• O=C(/C=C/Nc1ccccc1)c1ccc2c(c1)Nc1ccccc1S2 = 81.4% (inactive)
• Cc1nc(Nc2nc(C)c3ccc(OCCN4CCOCC4)cc3n2)[nH]c(=O)c1C = -3.4% (active)

Value of measured growth for the entry O=c1oc2ccc(-c3ccc(F)cc3F)cc2c(=O)n1-c1ccc(F)cc1 : 4.34% (active)

Value of measured growth for the entry O=C(CSc1nnc(-c2c[nH]c3ccccc23)n1-c1ccccc1)c1ccc(Br)cc1 : 10.8% (inactive)

Value of measured growth for the entry Cc1ccn2c(C(=O)c3ccc(Br)cc3)cc(-c3cc(-c4ccc(N(C)C)cc4)c(C#N)c(N)n3)c2c1 : 68.2% (inactive)
